MEASUREMENT TARGET: FLAG-tagged full length PHD2 (Homo sapiens)
Construct: FLAG-tagged full length PHD2 expressed in and purified from baculovirus-infected Sf9 cells; FLAG
Sequence (Q9GZT9 whole entry): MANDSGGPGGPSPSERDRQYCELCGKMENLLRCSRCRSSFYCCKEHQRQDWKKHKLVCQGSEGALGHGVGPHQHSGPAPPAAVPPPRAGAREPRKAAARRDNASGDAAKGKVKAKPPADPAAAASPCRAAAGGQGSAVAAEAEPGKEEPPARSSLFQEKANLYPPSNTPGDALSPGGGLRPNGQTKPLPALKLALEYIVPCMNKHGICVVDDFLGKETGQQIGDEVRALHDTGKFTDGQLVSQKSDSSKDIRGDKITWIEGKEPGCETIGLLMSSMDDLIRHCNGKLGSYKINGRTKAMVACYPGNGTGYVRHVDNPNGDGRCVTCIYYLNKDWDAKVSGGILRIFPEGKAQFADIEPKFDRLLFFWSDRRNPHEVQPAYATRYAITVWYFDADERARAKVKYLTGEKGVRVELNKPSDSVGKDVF
METHOD DESCRIPTION: PHD2 inhibition assay (time resolved fluorescence, HIF-1α peptide hydroxylation, VHL complex detection)
TEST CONTEXT: 0.2 μM 2-oxoglutarate, 0.5 μM HIF-1α peptide
pIC50: −log10 of the molar value.
QUANTITY MEASURED: pIC50

Asked: Look up pIC50: CP(=O)(O)c1ccc([C@H](NC(=O)c2cnc(-n3cccn3)nc2O)c2ccccc2)cc1 [Compound 23-1]
Given back: 7.70 to 9.30

Asked: Look up pIC50: CCOP(=O)(O)c1ccc(C(NC(=O)c2cnc(-c3ccccn3)nc2O)c2ccccc2)cc1 (centres unmarked) [Compound 2-3]
Given back: 7.70 to 9.30

Asked: Look up pIC50: O=C(NC(c1ccccc1)c1ccc(P(=O)(O)O)cc1)c1cnc(-c2ccccn2)nc1O (centres unmarked) [Compound 2-2]
Given back: 7.70 to 9.30

Asked: Look up pIC50: COc1ccc(C(NC(=O)c2cnc(-c3cccnn3)nc2O)P(=O)(O)O)cc1 (centres unmarked) [Compound 30-2]
Given back: 7.70 to 9.30

Asked: Look up pIC50: CCOP(=O)(OCC)c1ccc(C(C(=O)Nc2cnc(-n3cccn3)nc2O)c2ccccc2)cc1 (centres unmarked) [Compound 14-1]
Given back: 7.70 to 9.30

Asked: Look up pIC50: CCOP(=O)(OCC)c1ccc(C(C)NC(=O)c2cnc(-c3ccccn3)nc2O)cc1 (centres unmarked) [Compound 3-1]
Given back: 7.00 to 7.70

Asked: Look up pIC50: CCOP(=O)(OCC)c1ccc(C(C(=O)Nc2cnc(-n3cccn3)nc2O)C(C)C)cc1 (centres unmarked) [Compound 13-1]
Given back: 7.00 to 7.70

Asked: Look up pIC50: CP(=O)(O)c1ccc(C(NC(=O)c2cnc(-c3ccccn3)nc2O)c2ccccc2)cc1 (centres unmarked) [Compound 2-5]
Given back: 7.70 to 9.30
